- target or test system: human V1a receptor (Homo sapiens)
- Sequence (P37288 whole entry): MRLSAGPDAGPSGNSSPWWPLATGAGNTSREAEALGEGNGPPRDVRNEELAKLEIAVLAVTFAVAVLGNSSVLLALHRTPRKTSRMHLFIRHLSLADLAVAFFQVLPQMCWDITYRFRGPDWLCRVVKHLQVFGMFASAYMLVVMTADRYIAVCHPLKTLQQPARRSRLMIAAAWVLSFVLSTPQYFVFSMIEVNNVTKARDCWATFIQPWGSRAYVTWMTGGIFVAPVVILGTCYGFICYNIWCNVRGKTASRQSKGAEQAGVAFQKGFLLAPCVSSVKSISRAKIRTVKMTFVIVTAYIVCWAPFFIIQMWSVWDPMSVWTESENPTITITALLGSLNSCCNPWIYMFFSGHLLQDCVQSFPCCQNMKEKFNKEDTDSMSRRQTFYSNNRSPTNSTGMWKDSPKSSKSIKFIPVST
- experiment: Cellular in vitro assay for determining vasopressin receptor activity (V1a, aequorin luminescence)
- experimental context: CHO cell line transfected with the human V1a receptor; [Arg8]-vasopressin at EC50 concentration; read-out: IC50 hV1a
pIC50: −log10 of the molar value. Where a name gives a salt, the structure may show the parent alone.
parameter: pIC50

# annotated cases, reported pIC50 shown
O=C1CC[C@H](c2nc(Cn3nc(-c4ccc(Cl)cc4)n(C[C@H](O)C(F)(F)F)c3=O)nn2-c2ccccc2Cl)N1
9.11
O=C(NCC(F)(F)F)OCc1nc(Cn2nc(-c3ccc(Cl)cc3)n(C[C@H](O)C(F)(F)F)c2=O)nn1-c1cccc(F)c1
7.95
NC1(c2nc(Cn3nc(-c4ccc(Cl)cc4)n(C[C@H](O)C(F)(F)F)c3=O)nn2-c2ccccc2Cl)CC1 [Example 76, hydrochloride]
9.32
C[C@@H](OC(N)=O)c1nc(Cn2nc(-c3ccc(Cl)cc3)n(C[C@H](O)C(F)(F)F)c2=O)nn1-c1c(F)cccc1Cl
8.87
Cc1ccccc1-n1nc(Cn2nc(-c3ccc(Cl)cc3)n(C[C@H](O)C(F)(F)F)c2=O)nc1C(C)N (mixture of isomers) [Example 59, trifluoroacetate]
8.92

(1) CN1C(=O)CCC1c1nc(Cn2nc(-c3ccc(Cl)cc3)n(C[C@H](O)C(F)(F)F)c2=O)nn1-c1ccccc1Cl (single isomer, unassigned) [Example 72]
(2) CN1C(=O)CCC1c1nc(Cn2nc(-c3ccc(Cl)cc3)n(C[C@H](O)C(F)(F)F)c2=O)nn1-c1ncccc1Cl (mixture of isomers)
Request: Between item 1 and item 2 , which reported pIC50 is smaller? Reply with the label of the item you choose.
Result: 2
(2: 8.84, 1: 9.17)

====

- target or test system: human V2 receptor (Homo sapiens)
- Sequence (P30518 whole entry): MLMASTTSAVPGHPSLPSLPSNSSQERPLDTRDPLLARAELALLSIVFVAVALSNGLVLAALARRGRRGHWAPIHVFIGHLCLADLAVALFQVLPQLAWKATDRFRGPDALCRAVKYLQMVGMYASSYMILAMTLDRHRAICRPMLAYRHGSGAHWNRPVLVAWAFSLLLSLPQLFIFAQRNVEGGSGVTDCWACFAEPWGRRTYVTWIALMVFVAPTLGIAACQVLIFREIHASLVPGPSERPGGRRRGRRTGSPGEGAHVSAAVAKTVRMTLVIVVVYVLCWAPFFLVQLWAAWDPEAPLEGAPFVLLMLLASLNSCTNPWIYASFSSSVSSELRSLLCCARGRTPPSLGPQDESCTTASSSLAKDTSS
- experiment: Cellular in vitro assay for determining vasopressin receptor activity (V2, CRE-luciferase)
- experimental context: CHO cell line transfected with the human V2 receptor; [Arg8]-vasopressin at EC50 concentration; read-out: IC50 hV2
parameter: IC50 (nM)

# annotated cases, reported IC50 shown
CC(C)(C)OCC(NS(C)(=O)=O)c1nc(Cn2nc(-c3ccc(Cl)cc3)n(C[C@H](O)C(F)(F)F)c2=O)nn1-c1ccccc1Cl (single isomer, unassigned) [Example 84]
44.5
CN1C(=O)CCC1c1nc(Cn2nc(-c3ccc(Cl)cc3)n(C[C@H](O)C(F)(F)F)c2=O)nn1-c1ccccc1Cl (single isomer, unassigned) [Example 71]
13.8
COCCNC(=O)OCc1nc(Cn2nc(-c3ccc(Cl)cc3)n(C[C@H](O)C(F)(F)F)c2=O)nn1-c1cccc(F)c1
7.98
COc1ccccc1-n1nc(Cn2nc(-c3ccc(Cl)cc3)n(C[C@H](OC(N)=O)C(F)(F)F)c2=O)nc1C(C)OC(N)=O (single isomer, unassigned) [Example 42]
7.37
CC(=O)NC(C)c1nc(Cn2nc(-c3ccc(Cl)cc3)n(C[C@H](O)C(F)(F)F)c2=O)nn1-c1ccccc1Cl (single isomer, unassigned) [Example 66]
52.5

(P) O=C(NC(CO)c1nc(Cn2nc(-c3ccc(Cl)cc3)n(C[C@H](O)C(F)(F)F)c2=O)nn1-c1ccccc1Cl)C(F)(F)F (single isomer, unassigned) [Example 96]
(Q) CC(=O)NC(CO)c1nc(Cn2nc(-c3ccc(Cl)cc3)n(C[C@H](O)C(F)(F)F)c2=O)nn1-c1ccccc1Cl (single isomer, unassigned) [Example 93]
(R) CC(NS(C)(=O)=O)c1nc(Cn2nc(-c3ccc(Cl)cc3)n(C[C@H](O)C(F)(F)F)c2=O)nn1-c1ccccc1Cl (single isomer, unassigned) [Example 69]
(S) C[C@H](NC(=O)OC(C)(C)C)c1nc(Cn2nc(-c3ccc(Cl)cc3)n(C[C@H](O)C(F)(F)F)c2=O)nn1-c1cccc(Cl)c1
Request: Please produce an ascending ranking of these compounds based on IC50. # respond with the labels, arranged in the requested order
Result: P, R, Q, S

====

- target or test system: human V2 receptor (Homo sapiens)
- experiment: Cellular in vitro assay for determining vasopressin receptor activity (V2, CRE-luciferase)
- experimental context: CHO cell line transfected with the human V2 receptor; [Arg8]-vasopressin at EC50 concentration; read-out: IC50 hV2
parameter: IC50 (nM)

COC(=O)N[C@@H](C)c1nc(Cn2nc(-c3ccc(Cl)cc3)n(C[C@H](O)C(F)(F)F)c2=O)nn1-c1cccc(Cl)c1 [Example 58]
1.95

(P) CC(=O)NC(C)c1nc(Cn2nc(-c3ccc(Cl)cc3)n(C[C@H](O)C(F)(F)F)c2=O)nn1-c1ncccc1Cl (mixture of isomers) [Example 107]
(Q) CC(=O)NC(CO)c1nc(Cn2nc(-c3ccc(Cl)cc3)n(C[C@H](O)C(F)(F)F)c2=O)nn1-c1ccccc1Cl (single isomer, unassigned) [Example 92]
Request: Between item P and item Q , which reported IC50 is smaller? Reply with the label of the item you choose.
Result: Q
(Q: 17.5 nM, P: 240 nM)

====

- target or test system: human V1a receptor (Homo sapiens)
- Construct: expressed in transfected cells; host or cells: CHO K1 (ATCC), also stably transfected with a modified aequorin
- experiment: Cellular in vitro assay for determining vasopressin receptor activity (V1a, aequorin luminescence)
- Format: cell-based
- experimental context: selectivity ratio of IC50 hV2 to IC50 hV1a
Where a name gives a salt, the structure may show the parent alone.
parameter: ratio IC50 hV2/hV1a

(1) C[C@H](NC(=O)OC(C)(C)C)c1nc(Cn2nc(-c3ccc(Cl)cc3)n(C[C@H](O)C(F)(F)F)c2=O)nn1-c1cccc(Cl)c1
(2) C[C@H](OC(N)=O)c1nc(Cn2nc(-c3ccc(Cl)cc3)n(C[C@H](O)C(F)(F)F)c2=O)nn1-c1c(Cl)cncc1Cl
Request: Endpoint returns whichever of 1 and 2 has the numerically higher ratio IC50 hV2/hV1a. Reply with the label of the item you choose.
Result: 2

(A) NC(CO)c1nc(Cn2nc(-c3ccc(Cl)cc3)n(C[C@H](O)C(F)(F)F)c2=O)nn1-c1ccccc1Cl (mixture of isomers) [Example 81, hydrochloride]
(B) NC(=O)OCc1nc(Cn2nc(-c3ccc(Cl)cc3)n(C[C@H](O)C(F)(F)F)c2=O)nn1-c1cccc(F)c1
(C) O=C1NC(c2nc(Cn3nc(-c4ccc(Cl)cc4)n(C[C@H](O)C(F)(F)F)c3=O)nn2-c2ncccc2Cl)CO1 (single isomer, unassigned) [Example 114]
Request: Please produce an ascending ranking of these compounds based on ratio IC50 hV2/hV1a. # respond with the labels, arranged in the requested order
Result: B, A, C
(B: 0.9, A: 6.4, C: 23.2)

(P) CS(=O)(=O)NC1(c2nc(Cn3nc(-c4ccc(Cl)cc4)n(C[C@H](O)C(F)(F)F)c3=O)nn2-c2ccccc2Cl)CC1
(Q) CN1C(=O)CCC1c1nc(Cn2nc(-c3ccc(Cl)cc3)n(C[C@H](O)C(F)(F)F)c2=O)nn1CCC(F)(F)F (single isomer, unassigned) [Example 131]
Request: Endpoint returns whichever of P and Q has the numerically higher ratio IC50 hV2/hV1a. Reply with the label of the item you choose.
Result: Q

(a) CC(N)c1nc(Cn2nc(-c3ccc(Cl)cc3)n(C[C@H](O)C(F)(F)F)c2=O)nn1-c1cccc(F)c1 (single isomer, unassigned) [Example 55]
(b) CC(C)(C)OCC(NS(C)(=O)=O)c1nc(Cn2nc(-c3ccc(Cl)cc3)n(C[C@H](O)C(F)(F)F)c2=O)nn1-c1ccccc1Cl (mixture of isomers) [Example 82]
(c) C[C@H](N)c1nc(Cn2nc(-c3ccc(Cl)cc3)n(C[C@H](O)C(F)(F)F)c2=O)nn1-c1cccc(Cl)c1 [Example 57, hydrochloride]
(d) CC(C)(C)OCC(NS(C)(=O)=O)c1nc(Cn2nc(-c3ccc(Cl)cc3)n(C[C@H](O)C(F)(F)F)c2=O)nn1-c1ccccc1Cl (single isomer, unassigned) [Example 83]
Request: Please produce an ascending ranking of these compounds based on ratio IC50 hV2/hV1a. # respond with the labels, arranged in the requested order
Result: c, a, d, b
(c: 0.1, a: 1.4, d: 41.3, b: 75.6)

(P) C[C@H](OC(N)=O)c1nc(Cn2nc(-c3ccc(Cl)cc3)n(C[C@H](O)C(F)(F)F)c2=O)nn1-c1cccc(F)c1
(Q) C[C@@H](OC(N)=O)c1nc(Cn2nc(-c3ccc(Cl)cc3)n(C[C@H](O)C(F)(F)F)c2=O)nn1-c1ccc(Cl)cn1
Request: Between item P and item Q , which reported ratio IC50 hV2/hV1a is smaller? Reply with the label of the item you choose.
Result: P

====

- target or test system: human V2 receptor (Homo sapiens)
- experiment: Cellular in vitro assay for determining vasopressin receptor activity (V2, CRE-luciferase)
- experimental context: CHO cell line transfected with the human V2 receptor; [Arg8]-vasopressin at EC50 concentration; read-out: IC50 hV2
pIC50: −log10 of the molar value.
parameter: pIC50

CCNC(=O)OCc1nc(Cn2nc(-c3ccc(Cl)cc3)n(C[C@H](O)C(F)(F)F)c2=O)nn1-c1cccc(F)c1
8.23

(I) CC(N)c1nc(Cn2nc(-c3ccc(Cl)cc3)n(C[C@H](O)C(F)(F)F)c2=O)nn1-c1cccc(F)c1 (single isomer, unassigned) [Example 54]
(II) C[C@@H](OC(N)=O)c1nc(Cn2nc(-c3ccc(Cl)cc3)n(C[C@H](O)C(F)(F)F)c2=O)nn1-c1c(Cl)cncc1Cl
Request: Between item I and item II , which reported pIC50 is smaller? Reply with the label of the item you choose.
Result: II
(II: 7.28, I: 8.38)
